Target: T1, Full-length S. cerevisiae Pex5 (S. cerevisiae, UniProt P35056 1-612)
T1 sequence: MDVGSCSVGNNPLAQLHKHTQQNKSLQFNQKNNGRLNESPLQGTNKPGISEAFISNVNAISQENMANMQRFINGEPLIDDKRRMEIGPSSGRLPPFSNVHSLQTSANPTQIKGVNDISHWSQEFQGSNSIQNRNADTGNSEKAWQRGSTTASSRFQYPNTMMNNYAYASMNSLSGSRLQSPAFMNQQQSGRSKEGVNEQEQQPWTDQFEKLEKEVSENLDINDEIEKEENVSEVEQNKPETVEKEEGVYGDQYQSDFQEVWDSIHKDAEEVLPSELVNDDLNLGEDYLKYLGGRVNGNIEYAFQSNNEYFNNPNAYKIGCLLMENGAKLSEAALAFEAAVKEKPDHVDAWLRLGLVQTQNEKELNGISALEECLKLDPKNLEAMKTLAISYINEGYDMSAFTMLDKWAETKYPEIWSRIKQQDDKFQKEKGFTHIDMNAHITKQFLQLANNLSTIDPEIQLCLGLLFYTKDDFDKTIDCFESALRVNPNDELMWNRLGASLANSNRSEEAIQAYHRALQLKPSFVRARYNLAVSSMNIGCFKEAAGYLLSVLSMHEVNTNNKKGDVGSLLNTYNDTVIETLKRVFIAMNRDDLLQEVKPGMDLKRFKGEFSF
Assay: fluorescence polarisation
No end group written: not given here. *: point of attachment. FITC = O=C1OC2(c3ccc(O)cc3Oc3cc(O)ccc32)c2ccc(NC(=S)*)cc21
endpoint.label: Kd (nM)

| binder | value |
| --- | --- |
| {FITC}-YNENKRKAKL [Cat2 peptide (FITC-YNENKRKAKL)] | 49.9 |
| {FITC}-YKSSRNKSKL [Pcs60 peptide (FITC-YKSSRNKSKL)] | 455 |
| {FITC}-YARVKRSSRL [Lys1 peptide (FITC-YARVKRSSRL)] | 29.3 |
| {FITC}-GMDELYKSKL [mCherry-SKL peptide (FITC-GMDELYKSKL)] | 9840 |
